Tested on: FMC63
Sequence (as listed by the source): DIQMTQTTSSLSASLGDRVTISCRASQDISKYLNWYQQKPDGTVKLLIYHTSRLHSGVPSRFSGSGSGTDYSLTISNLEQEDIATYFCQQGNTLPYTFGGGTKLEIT
Sequence (as listed by the source): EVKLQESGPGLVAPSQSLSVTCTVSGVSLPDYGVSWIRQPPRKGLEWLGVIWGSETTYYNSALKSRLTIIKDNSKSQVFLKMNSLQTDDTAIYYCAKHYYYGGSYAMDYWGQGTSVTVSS
Experiment: CD19 variant binding to anti-CD19 antibody FMC63 (score)
Details: Table 1B, CD19 triple mutants
ATTRIBUTE MEASURED: FMC63 Binding Score
Output spec: single numeric token, no unit.

Query: Give FMC63 Binding Score for the following molecule: W62S/F64V/F66S: CD19 variant (protein) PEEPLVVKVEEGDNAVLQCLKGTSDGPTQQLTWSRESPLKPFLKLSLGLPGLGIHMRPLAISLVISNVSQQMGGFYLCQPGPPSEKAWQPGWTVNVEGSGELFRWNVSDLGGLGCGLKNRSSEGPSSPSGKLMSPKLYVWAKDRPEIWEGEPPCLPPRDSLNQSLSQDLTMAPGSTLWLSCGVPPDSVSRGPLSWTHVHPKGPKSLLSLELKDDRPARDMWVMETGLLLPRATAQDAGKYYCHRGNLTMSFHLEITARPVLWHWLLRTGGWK
Reply: 15.4

Query: Find the measured FMC63 Binding Score of W62E/F64R/F66P: CD19 variant (protein) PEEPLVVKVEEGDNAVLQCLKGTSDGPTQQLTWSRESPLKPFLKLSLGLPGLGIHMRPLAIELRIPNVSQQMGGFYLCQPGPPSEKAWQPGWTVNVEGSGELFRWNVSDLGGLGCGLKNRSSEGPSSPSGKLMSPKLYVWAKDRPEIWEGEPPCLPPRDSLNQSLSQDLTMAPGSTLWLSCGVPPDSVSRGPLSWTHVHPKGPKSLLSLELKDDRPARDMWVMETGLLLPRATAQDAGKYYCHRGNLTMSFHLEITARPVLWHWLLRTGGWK and report it.
Reply: 16.5

Query: Output FMC63 Binding Score of E224E/G226E/L228V: CD19 variant (protein) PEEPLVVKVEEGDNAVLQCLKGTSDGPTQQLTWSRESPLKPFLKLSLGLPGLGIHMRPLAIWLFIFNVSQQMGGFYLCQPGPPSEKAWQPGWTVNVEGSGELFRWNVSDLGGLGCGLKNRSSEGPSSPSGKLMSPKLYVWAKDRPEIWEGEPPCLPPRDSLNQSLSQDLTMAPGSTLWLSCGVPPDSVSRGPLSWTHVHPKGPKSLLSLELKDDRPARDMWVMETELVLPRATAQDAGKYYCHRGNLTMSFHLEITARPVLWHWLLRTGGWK
Reply: 11.6

Query: For the molecule W62S/F64V/F66R: CD19 variant (protein) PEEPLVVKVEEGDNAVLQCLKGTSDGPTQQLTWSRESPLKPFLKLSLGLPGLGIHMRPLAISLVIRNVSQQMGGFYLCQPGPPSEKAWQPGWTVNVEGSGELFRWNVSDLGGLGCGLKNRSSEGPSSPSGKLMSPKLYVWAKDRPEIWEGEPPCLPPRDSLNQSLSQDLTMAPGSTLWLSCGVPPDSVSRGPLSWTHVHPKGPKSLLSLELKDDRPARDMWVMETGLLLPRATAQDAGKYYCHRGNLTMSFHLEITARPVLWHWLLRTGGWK , give its reported FMC63 Binding Score.
Reply: 11.8

Query: State its FMC63 Binding Score for this molecule: E224D/G226V/L228V: CD19 variant (protein) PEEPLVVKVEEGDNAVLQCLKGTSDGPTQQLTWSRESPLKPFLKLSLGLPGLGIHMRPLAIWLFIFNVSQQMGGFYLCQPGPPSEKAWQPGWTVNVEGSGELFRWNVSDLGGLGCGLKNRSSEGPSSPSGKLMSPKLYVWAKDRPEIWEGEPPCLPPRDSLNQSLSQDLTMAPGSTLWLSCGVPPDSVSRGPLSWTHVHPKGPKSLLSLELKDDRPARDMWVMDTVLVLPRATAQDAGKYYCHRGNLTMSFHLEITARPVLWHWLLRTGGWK
Reply: 13.8

Query: In one line, give reported FMC63 Binding Score of the entry W62W/F64V/F66A: CD19 variant (protein) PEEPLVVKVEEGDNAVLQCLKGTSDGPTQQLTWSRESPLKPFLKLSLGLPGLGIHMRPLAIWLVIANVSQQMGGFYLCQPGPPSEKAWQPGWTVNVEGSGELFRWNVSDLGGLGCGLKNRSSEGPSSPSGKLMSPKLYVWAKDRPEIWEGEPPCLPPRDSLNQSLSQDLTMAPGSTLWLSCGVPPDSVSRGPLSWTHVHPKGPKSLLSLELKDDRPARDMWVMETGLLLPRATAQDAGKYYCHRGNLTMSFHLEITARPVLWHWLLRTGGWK .
Reply: 13.7

Query: Name the recorded FMC63 Binding Score of the molecule listed here: W62G/F64V/F66K: CD19 variant (protein) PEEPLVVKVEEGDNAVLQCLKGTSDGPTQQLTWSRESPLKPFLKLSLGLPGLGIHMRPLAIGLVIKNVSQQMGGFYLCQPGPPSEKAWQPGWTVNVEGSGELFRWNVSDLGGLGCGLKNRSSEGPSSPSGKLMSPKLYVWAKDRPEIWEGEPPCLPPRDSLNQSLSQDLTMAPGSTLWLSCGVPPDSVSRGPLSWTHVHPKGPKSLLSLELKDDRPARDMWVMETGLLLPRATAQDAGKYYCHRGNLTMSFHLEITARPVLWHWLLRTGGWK
Reply: 12.3

Query: Look up and report measured FMC63 Binding Score for this entry: W62S/F64R/F66S: CD19 variant (protein) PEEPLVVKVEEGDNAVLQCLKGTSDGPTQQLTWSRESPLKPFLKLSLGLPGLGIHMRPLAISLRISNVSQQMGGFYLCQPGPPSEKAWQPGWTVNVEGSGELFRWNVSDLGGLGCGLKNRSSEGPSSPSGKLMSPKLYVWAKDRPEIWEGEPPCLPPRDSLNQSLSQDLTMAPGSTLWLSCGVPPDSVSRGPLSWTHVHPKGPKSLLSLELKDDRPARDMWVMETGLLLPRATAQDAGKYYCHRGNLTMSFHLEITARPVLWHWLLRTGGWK
Reply: 13.2
